B1: library; a variant is named by its letters at N, in order (parent)
chain: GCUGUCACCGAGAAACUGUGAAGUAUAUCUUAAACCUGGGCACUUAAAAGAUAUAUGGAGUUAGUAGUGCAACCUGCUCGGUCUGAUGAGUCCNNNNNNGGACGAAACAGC

variants of: B1; assay: FACS-Seq fitted mean relative fluorescence mCherry/BFP without ligand (log10 relative fluorescence); HEK293T; ligand: cyclic di-GMP (c-di-GMP-II aptamer); higher = higher reporter protein expression; conditions: ligand present: no
Each entry gets FALSE if its FACS-Seq fitted mean (log10) stays under -0.4, and TRUE if its FACS-Seq fitted mean (log10) is -0.4 or above.

GUAACG : TRUE
ACGGAA : FALSE

For this variant, is measured FACS-Seq fitted mean (log10) -0.4 or higher? UCGAGA
FALSE

For this variant, is measured FACS-Seq fitted mean (log10) -0.4 or higher? GCGAUC
FALSE

For this variant, is measured FACS-Seq fitted mean (log10) -0.4 or higher? UUGUAG
TRUE
